Listing of entries alongside the reported growth.
- Tested on: MDA-MB-231 breast
- test-description: NCI-60 one-dose screen, 48 h (100 = growth as untreated, 0 = no growth, -100 = all killed)
- recorded-conditions: 10 µM unless noted
Compounds without any hit were thinned out: in the full panel of roughly 83,000, 20% have a hit. The source made the active and inactive calls. The calls were made as follows: active = growth percent below 10; inactive = the rest.

The examples below pair each entry with its known result.
C#Cc1cccc(NC(=O)c2ccc(NC(=O)CCl)cc2)c1 :: -22.8% [8.25 µM] (active)
Cc1c(C(=O)OC(=NC2CCCCC2)NC2CCCCC2)sc2c1c(=O)nc1c(C#N)n[nH]n12 :: 113% (inactive)
CCN1C(=O)N(CC)C2Nn3c(s/c(=C\c4cccc([N+](=O)[O-])c4)c3=O)=NC21 (stereo not given) :: 30.7% (inactive)
COCCc1ccc(OCC(O)CNC(C)C)cc1 (stereo not given) :: 101% (inactive)
Cc1occc1-c1n[nH]c(=S)n1N1C(=O)CSC1=S :: 101% (inactive)
Cc1ccc(/C=C/c2c(C(=O)/C=C/c3ccc(C(F)(F)F)cc3)c(C)nc3ccccc23)cc1 :: -40.5% (active)
C[C@@]1(CCC#N)[C@H]2CC[C@@H]3[C@H]4[C@H](C(=O)/C=C/c5cccnc5)CC[C@]4(C#N)CC[C@@]3(C)[C@]2(C)CC[C@H]1C(=O)/C=C/c1cccnc1 :: 93.4% (inactive)
C=C(C)[C@@H]1CC[C@]2(C)[C@H](CC=C3[C@@H]4CC(C)(C)CC[C@]4(C(N)=O)CC[C@]32C)[C@@]1(C)CCC#N :: 38.6% (inactive)

What measured growth goes with NC[C@H](O)c1ccc(O)c(O)c1 ?
78.8% (inactive)

For Cc1cc(/C=C\c2ccc3ccccc3[n+]2C)c(O)c2ncccc12 then?
4.71% (active)

* * *

- System: CAKI-1 renal
- test-description: NCI-60 one-dose screen, 48 h
- recorded-conditions: 10 µM unless noted
The panel holds about 83,000 compounds, 20% with a hit somewhere; the sample as a whole holds those more often. The source made the active and inactive calls. Rule for the calls: active = growth percent below 10; inactive = the rest.
Your answer must be one of the following: Y (active), N (inactive)

What call does the record list for Cc1ccc2nc(C)c(-c3nnc(SCc4ccc(C#N)cc4)o3)n2c1 ?
N

For CCc1ccccc1-n1c(-c2ccc(Cl)cc2)cc(-c2ccc(OC)cc2)c(C#N)c1=O then?
N

For COc1ccc(-c2nc(SCCC(C)C)nc(N/N=C\c3ccccc3O)c2C#N)cc1 then?
N

For Cc1cccc(-c2nc(N(C)c3ccc4ncsc4c3)c3ccccc3n2)n1 then?
N

For Cc1c(Cl)cc(-n2c(=O)c3ccccc3c3ccccc3c2=O)cc1Cl then?
N

For O=c1c2c3c(sc2nc(N/N=C/c2ccc(Br)cc2)n1Cc1ccccc1)CCCC3 then?
N

For CCN(CC)CCN1C(=O)c2c(c(C)c3c(oc4cc(O)ccc43)c2C)C1=O then?
Y

For CC(C)C(NC(=O)C1(NC(=O)OCc2ccccc2)CCCC1)C(=O)O (configuration not stated) then?
N

For CC1(C)CC(=O)CC2(C1)N=C(N)Nc1nc3ccccc3n12 (configuration not stated) then?
N

For COc1ccc(C(=O)Nn2c(NCC(=O)N3c4ccccc4Sc4ccccc43)nnc2-c2ccc(O)cc2)cc1 then?
N

* * *

Listing of entries alongside the reported growth.
- Test system: SK-MEL-28 melanoma
- test-description: NCI-60 one-dose screen, 48 h (100 = growth as untreated, 0 = no growth, -100 = all killed)
- recorded-conditions: 10 µM unless noted
This is part of a sample that, as a whole, favours compounds with a hit. Of some 83,000 tested, about 20% had one in any assay.
Write the number in % without appending the unit.

The examples below pair each entry with its known result.
O=C(CCc1nnc(CN(c2ccccc2)c2ccccc2)o1)c1nc2ccccc2[nH]1 :: 112
O=[N+]([O-])c1ccc(OCCO)cc1 :: 114
CCCCn1c(=O)c2c(nc3n2CCCN3CCc2ccc(OCC(=O)NCCN(CC)CC)cc2)n(CCCC)c1=O :: -36.4
COc1ccc(-c2csc(C3=C(O)CN(CCCN4CCCC4=O)C3=N)n2)cc1OC :: 124
COc1ccc(-c2csc(C3=C(O)CN(C(C)C)C3=N)n2)cc1OC :: 123

What measured growth goes with Cc1cc(O)c(C2=NN(c3ccc(S(N)(=O)=O)cc3)C(c3ccccc3Cl)C2)cc1Cl (stereo not given) ?
63.2

For O=C(/C=C/c1ccco1)c1ccc(Nc2nc(Nc3ccc(F)cc3)nc(Nc3ccc(Cl)cc3)n2)cc1 then?
60.3

* * *

- Test system: EKVX NSCLC
- test-description: NCI-60 one-dose screen, 48 h (100 = growth as untreated, 0 = no growth, -100 = all killed)
- recorded-conditions: 10 µM unless noted
This is part of a sample that, as a whole, favours compounds with a hit. Of some 83,000 tested, about 20% had one in any assay.
quantity-measured: growth (%)
Write the number in % without appending the unit.

The examples below pair each entry with its known result.
Cc1ccc(N(C(=O)CCc2c[nH]c3ccccc23)[C@H](C(=O)Nc2ccc(Cl)cc2)c2cccc([N+](=O)[O-])c2)cc1 :: 93
CCCCN(CCCC)CC(C)(C)C(O)c1ccc(OC)c2ccccc12 (stereo not given) :: 44
COc1ccc(/C=c2\nc3n(-c4ccccc4)c4nc5c6c(sc5c(=N)n4n-3c2=O)CCCC6)cc1 :: 67
COc1ccc(-c2cc(-c3cc(OC)c(OC)c(OC)c3)c(C#N)c(N3CCOCC3)n2)cc1O :: 59.8

What measured growth goes with Oc1ccc(CN2CCC(N3CCOCC3)CC2)c2cccnc12 ?
59.4

* * *

Listing of entries alongside the reported growth.
- System: MALME-3M melanoma
- test-description: NCI-60 one-dose screen, 48 h (100 = growth as untreated, 0 = no growth, -100 = all killed)
- recorded-conditions: 10 µM unless noted
This is part of a sample that, as a whole, favours compounds with a hit. Of some 83,000 tested, about 20% had one in any assay. Activity calls are given as the source filed them. How the source made its calls: active means growth percent below 10; inactive means the rest.

COc1ccc(-c2nc3ccc4[nH]ncc4c3c3c2CCCC3)cc1B(O)O :: 75% (inactive)
O=C1C=C[C@]2(C[C@@H](c3cccc(C(F)(F)F)c3)O[C@@H](c3cccc(C(F)(F)F)c3)O2)O1 :: 36.4% (inactive)
CCN(CC)S(=O)(=O)c1cccc(-c2ccc3c(NC(=O)C4CC4)n[nH]c3c2)c1 :: 21.1% [6.25 µM] (inactive)

What measured growth goes with CNC(=O)c1cc(Oc2cccc3nc(Nc4ccc(F)c(Cl)c4)ccc23)ccn1 ?
40.2% (inactive)

For COc1cc(C(=O)c2cc(C)c3[nH]c4ccc(Cl)cc4c3c2C)cc(OC)c1OC then?
27.9% (inactive)

* * *

Listing of entries alongside the reported growth.
- Test system: A498 renal
- test-description: NCI-60 one-dose screen, 48 h (100 = growth as untreated, 0 = no growth, -100 = all killed)
- recorded-conditions: 10 µM unless noted
About 83,000 compounds went through this panel and 20% of them were active in at least one assay; those are over-represented in the sample as a whole.
Write the number in % without appending the unit.

What measured growth goes with O=C(Nc1cccc(C(F)(F)F)c1)Nc1cccc(C(F)(F)F)c1 ?
-18.2

For O=C(N/N=C/c1ccncc1)c1ccc(C(F)(F)F)nc1Nc1cccc(C(F)(F)F)c1 then?
35.3

For CC(C)(C)c1ccc(/C=C/C(=O)Nc2ccc(O)cc2)cc1 then?
103

For Clc1cccc(Cl)c1C(Nc1nc2ccccc2s1)Nc1nc2ccccc2s1 then?
112

For Cc1cc(/C=C\c2ccc3ccccc3[n+]2C)c(O)c2ncccc12 then?
30.5

For O=c1c2cc(F)ccc2sc2c(Nc3cccnc3)nc3ccccc3c12 then?
79.5

For COc1cccc(-c2nc3sccn3c2/C=C/C(=O)c2ccc(C(F)(F)F)cc2)c1 then?
52.7

For CC(=O)OC1CCC2(C)C(=CC3C4CCC(=O)C4(C)CCC32)C1 (stereo not given) then?
154

For O=C1/C(=C\c2c[nH]c3ccccc23)c2ccccc2N1c1c(Cl)cccc1Cl then?
19.2

For CCN(CCNc1ccc(C)c2sc3ccccc3c(=O)c12)CC(C)(C)O then?
81

For CCN1CCN(c2cc(C)nc(NCc3cc(Nc4ccnc5cc(Cl)ccc45)ccc3F)n2)CC1 then?
36.2

For CCN(CC)Cc1cccc(C(=O)OC)c1 then?
115

For Cc1ccc(Cl)c(NS(=O)(=O)c2ccc(-c3cnc(C4CC4)o3)cc2)c1 then?
-5.72

For CC(C)(C)C(CCc1ccc(Cl)cc1)N1CCN(C2CCCCC2)CC1 (stereo not given) then?
78

For COc1ccc(C2C(c3nn[nH]n3)=C(N)Oc3c2ccc2ccccc32)cc1 (stereo not given) then?
26.5

For Cn1c(=O)c2[nH]c(NN)nc2n(C)c1=O then?
109

For O=c1c2c3c(sc2nc(N/N=C/c2ccc(Br)cc2)n1Cc1ccccc1)CCCC3 then?
78.4

For O=C(Nc1cccc2c(O)c(N=Nc3ccc(S(=O)(=O)Nc4nccs4)cc3)cc(N=Nc3ccc(S(=O)(=O)Nc4nccs4)cc3)c12)C(Cl)Cl then?
85

For COc1cccc(-c2nn(-c3ccccc3)cc2-c2ccnc(NCCNC(=O)Nc3cccc(C(F)(F)F)c3)c2)c1 then?
39.7

For CC1=NOC(=O)/C1=C\c1ccc(O)cc1 then?
86.7

For Cc1ccc(C2SCC(=O)N2Cc2ccccc2)cc1 (stereo not given) then?
109

For CCCCc1ccc(Nc2ccc(Nc3ccc(CCCC)cc3S(=O)(=O)O)c3c2C(=O)c2ccccc2C3=O)c(S(=O)(=O)O)c1 then?
119

For N#Cc1c(N)nc2c(C#N)c(NC(=O)c3ccccc3)nn2c1-c1ccccc1 then?
59.1

For O=[N+]([O-])c1ccc(N2c3ccncc3Sc3ccncc32)cc1 then?
112

Cited source: PubChem BioAssay (NCI)
